Target: NDM-1 (Klebsiella pneumoniae)
Sequence (C7C422 whole entry, looked up, species assumed): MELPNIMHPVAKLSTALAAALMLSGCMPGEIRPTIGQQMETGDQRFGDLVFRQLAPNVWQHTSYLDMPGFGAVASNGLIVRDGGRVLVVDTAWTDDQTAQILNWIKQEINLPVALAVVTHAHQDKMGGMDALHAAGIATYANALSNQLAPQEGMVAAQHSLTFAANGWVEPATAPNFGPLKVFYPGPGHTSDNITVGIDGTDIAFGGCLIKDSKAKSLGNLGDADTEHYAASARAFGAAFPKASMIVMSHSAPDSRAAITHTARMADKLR
Test: biochemical
Format: biochemical
Details: CCF2-FA substrate, 2 hours at 25° C; read-out: NDM-1 IC50
reported metric: IC50 (nM)
Value expressed in nM; do not type the unit.

Q) Using the record for Cn1nc(N)c2c(-c3ccc(S(=O)(=O)CCN)c(S(N)(=O)=O)c3-c3nnn[nH]3)cccc21 , report its IC50.
A) 0.198

Q) Need IC50 of Cc1ccc2cccc(-c3ccc(S(=O)(=O)C4CNC4)c(S(N)(=O)=O)c3-c3nnn[nH]3)c2n1.O=C(O)C(F)(F)F [Example 122, 2,2,2-trifluoroacetate] , thanks.
A) 0.155

Q) What value of measured IC50 is listed for Nc1cccc(-c2ccc(S(=O)(=O)C3CNC3)c(S(N)(=O)=O)c2-c2nn[nH]n2)n1 ?
A) 2.51

Q) Param item = NS(=O)(=O)c1c([S+]([O-])C2CNC2)ccc(-c2ccc(C3CCNCC3)cc2)c1-c1nn[nH]n1 (stereo not shown) ; retrieve measured IC50.
A) 1.98

Q) Which IC50 value belongs to NS(=O)(=O)c1c(S(=O)(=O)C2CNC2)ccc(-c2cncc3[nH]c(=O)[nH]c23)c1-c1nnn[nH]1 ?
A) 0.536

Q) Quick check: IC50 of NCCS(=O)(=O)c1ccc(-c2cccc(C(=O)O)c2N)c(-c2nn[nH]n2)c1S(N)(=O)=O ?
A) 0.197

Q) Recorded IC50 of NS(=O)(=O)c1c(S(=O)(=O)C2CNC2)ccc(-c2cnc3ccccn23)c1-c1nn[nH]n1 , please.
A) 0.332

Data provenance is patent US10227331B2.
